The reported measurements were obtained from patent US4288609A.

Consider the following compounds; for each one, report its animals dead on the 15th day.
tested on: Pseudomonas Aeruginosa; assay: Antibacterial activity in vivo with topical treatment (Table 5); parameters: species or system female CF1 albino mice; settings: 0.25% by weight, 10 animals
One number for each entry.

CCCCCCCCCC[N+](C)(C)CCOC(=O)C12CC3CC(CC(C3)C1)C2 (single isomer, unassigned): 5

Give measured animals dead on the 15th day for every item shown.
1. CCCCCCCCCCCC[N+](C)(C)CCNC(=O)C12CC3CC(CC(C3)C1)C2
2. CCCCCCCCCCCC[N+](C)(C)CCOC(=O)C12CC3CC(CC(C3)C1)C2

1. 7
2. 6

Value of measured animals dead on the 15th day for the entry CCCCCCCCCCCCCCCC[n+]1ccccc1 [Cetyl pyridine chloride, cetyl pyridine chloride, reference compound] : 9

###

tested on: Nicrosporum Canis ATCC 11621; experiment: MIC mildews, Microsporum canis (Table 2); type: cell-based; conditions: without serum; Sabourand broth
Consider the following compounds; for each one, report its MIC.
One number for each entry, in µg/mL.

Answered examples (3):
CCCCCCCCCC[N+](CC)(CC)CCNC(=O)C12CC3CC(CC(C3)C1)C2 [Example 9]: 0.2
CCCCCCCCCC[N+](CC)(CC)CCNC(=O)C12CC3CC(CC(C3)C1)C2 [Example 10]: 0.5
CCCCCCCCCC[N+](C)(C)CCOC(=O)C12CC3CC(CC(C3)C1)C2 (single isomer, unassigned) [Example 1]: 0.1

// next entry
Value of measured MIC for the entry CCCCCCCCCC[N+](C)(C)CCOC(=O)C12CC3CC(CC(C3)C1)C2 (single isomer, unassigned) [Example 2] : 0.5

###

system: Pseudomonas Aeruginosa; test: Antibacterial activity in vivo with topical treatment (Table 5); set-up: species or system female CF1 albino mice; conditions: 0.25% by weight, 10 animals
Consider the following compounds; for each one, report its animals alive on the 15th day.
One number for each entry.

Answered examples (3):
CCCCCCCCCC[N+](C)(C)CCOC(=O)C12CC3CC(CC(C3)C1)C2 (single isomer, unassigned): 5
CCCCCCCCCCCC[N+](C)(C)CCOC(=O)C12CC3CC(CC(C3)C1)C2: 4
CCCCCCCCCCCC[N+](C)(C)CCNC(=O)C12CC3CC(CC(C3)C1)C2: 3

// next entry
Value of measured animals alive on the 15th day for the entry CCCCCCCCCCCCCCCC[n+]1ccccc1 [Cetyl pyridine chloride, cetyl pyridine chloride, reference compound] : 1

###

Consider the following compounds; for each one, report its MIC.
Tested on: Trych. Mentagr. 1st.Pastuer
Test: MIC mildews, Trichophyton mentagrophytes (Table 2)
Assay type: cell-based
Details: +10% serum; Sabourand broth
Source text: The method for evaluating the activity in vitro against bacteria, fungi and protozoa consists in introducing calculated quantities of the substance, the activity of which it is desired to test, into culture media already inoculated with a predetermined number of test germs. […]
Numbers only, in µg/mL.

Answered examples (3):
CCCCCCCCCC[N+](C)(C)CCOC(=O)C12CC3CC(CC(C3)C1)C2 (single isomer, unassigned) [Example 2]: 20
CCCCCCCCCC[N+](C)(C)CCOC(=O)C12CC3CC(CC(C3)C1)C2 (single isomer, unassigned) [Example 1]: 5
CCCCCCCCCC[N+](CC)(CC)CCNC(=O)C12CC3CC(CC(C3)C1)C2 [Example 10]: 50

Value of measured MIC for the entry CCCCCCCCCC[N+](CC)(CC)CCNC(=O)C12CC3CC(CC(C3)C1)C2 [Example 9] : 10
